Test System: T1, HLA-DRw53 (DRB4*0101), purified from L257.6 transfected fibroblasts (human)
T1 chain 1: not shown
T1 chain 2: not shown
Test: 125I-peptide inhibition, purified class II
Non-standard residues stand in square brackets, D forms with d. No end group written: not given here. Cha = N[C@@H](CC1CCCCC1)C(=O)O
Parameter: fold increase in reactivity vs 760.57 (fold)
The answer is to be given in fold; state only the numeric part.

Request: May I ask what fold increase in reactivity vs 760.57 has been recorded for [dA]A[Cha]AFAATLKAA[dA]-NH2 (N-terminus assumed; SMILES CC(C)C[C@H](NC(=O)[C@@H](NC(=O)[C@H](C)NC(=O)[C@H](C)NC(=O)[C@H](Cc1ccccc1)NC(=O)[C@H](C)NC(=O)[C@H](CC1CCCCC1)NC(=O)[C@H](C)NC(=O)[C@@H](C)N)[C@@H](C)O)C(=O)N[C@@H](CCCCN)C(=O)N[C@@H](C)C(=O)N[C@@H](C)C(=O)N[C@H](C)C(N)=O) [906.17] ?
Response: 100

Request: What do we get for [dA]A[Cha]AAAATLKAF[dA]-NH2 (N-terminus assumed; SMILES CC(C)C[C@H](NC(=O)[C@@H](NC(=O)[C@H](C)NC(=O)[C@H](C)NC(=O)[C@H](C)NC(=O)[C@H](C)NC(=O)[C@H](CC1CCCCC1)NC(=O)[C@H](C)NC(=O)[C@@H](C)N)[C@@H](C)O)C(=O)N[C@@H](CCCCN)C(=O)N[C@@H](C)C(=O)N[C@@H](Cc1ccccc1)C(=O)N[C@H](C)C(N)=O) [906.50] ?
Response: 40

Request: What do we get for [dA]A[Cha]AVAATLKAA[dA]-NH2 (N-terminus assumed; SMILES CC(C)C[C@H](NC(=O)[C@@H](NC(=O)[C@H](C)NC(=O)[C@H](C)NC(=O)[C@@H](NC(=O)[C@H](C)NC(=O)[C@H](CC1CCCCC1)NC(=O)[C@H](C)NC(=O)[C@@H](C)N)C(C)C)[C@@H](C)O)C(=O)N[C@@H](CCCCN)C(=O)N[C@@H](C)C(=O)N[C@@H](C)C(=O)N[C@H](C)C(N)=O) [906.16] ?
Response: 100
